These measurements were taken from patent US20120149700A1.

# Measurement target: P2X3 (Homo sapiens)
# Sequence (P56373 whole entry): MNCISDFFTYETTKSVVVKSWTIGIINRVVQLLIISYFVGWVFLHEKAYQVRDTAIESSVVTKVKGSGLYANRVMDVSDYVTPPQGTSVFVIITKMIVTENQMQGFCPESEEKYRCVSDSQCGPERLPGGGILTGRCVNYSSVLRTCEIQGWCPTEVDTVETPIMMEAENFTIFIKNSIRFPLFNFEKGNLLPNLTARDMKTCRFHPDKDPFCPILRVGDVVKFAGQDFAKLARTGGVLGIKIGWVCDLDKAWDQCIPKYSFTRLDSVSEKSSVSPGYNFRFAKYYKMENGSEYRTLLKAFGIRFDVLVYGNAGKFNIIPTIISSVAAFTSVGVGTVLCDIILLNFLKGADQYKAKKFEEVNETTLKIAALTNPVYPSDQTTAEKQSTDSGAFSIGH
# Experiment notes: Calcium uptake assay (P2X antagonist assay, inhibition of agonist-induced calcium influx), P2X3
# Assay conditions: inhibition of agonist-induced calcium influx in cells expressing the receptor
We begin with a simple list: items and their reported IC50.
Your answer should be a plain number; it is taken to be in nM.

# annotated cases, reported IC50 shown
{"Molecule": "COc1ccc([C@@H](CCO)Nc2ncnc3c2CN(c2ccc(Cl)cc2C#N)CC3)cn1 [Compound 34]", "Measurement target": "P2X3 (Homo sapiens)", "Obs value": 33}
{"Molecule": "Cc1ccc(N2CCc3ncnc(NCc4ccccn4)c3C2)c(C#N)c1 [Compound 29]", "Measurement target": "P2X3 (Homo sapiens)", "Obs value": 196}

Ask | Query: IC50; subject: N#Cc1cc(C(F)(F)F)ccc1N1CCc2ncnc(NCc3ccc(C(F)(F)F)nc3)c2C1 [Compound 5]
Reply | 1840

Ask | Query: IC50; subject: Cc1ccc(N2CCc3ncnc(NCc4ccc(C)c(S(C)(=O)=O)c4)c3C2)c(C#N)c1 [Compound 59]
Reply | 16

Ask | Query: IC50; subject: Cc1ccc(N2CCc3ncnc(N[C@H](CO)c4ccc(C(F)(F)F)nc4)c3C2)c(C#N)c1 [Compound 46]
Reply | 21
